Recorded Ratio 3-1 vs 3-2 by entry
# experimental target: Brd3(BD1) (Homo sapiens, UniProt Q15059)
# Sequence (Q15059 34-140 limits assumed): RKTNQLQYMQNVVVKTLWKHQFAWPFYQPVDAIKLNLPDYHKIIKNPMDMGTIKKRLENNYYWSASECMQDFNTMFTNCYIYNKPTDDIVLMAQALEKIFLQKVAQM
# measurement protocol: HTRF BET selectivity profile, Brd3(BD1)
# Type: binding
# Design: GST tagged bromodomain proteins were purchased from BPS Bioscience; purchased BPS Bioscience
# condition notes: selectivity Brd3(BD1) vs Brd3(BD2), HTRF IC50

| compound | Ratio 3-1 vs 3-2 |
| --- | --- |
| CCn1c(CSc2nc3nc(C)cc(C)n3n2)nc2c1c(=O)[nH]c(=O)n2Cc1ccc(CNS(=O)(=O)c2ccc3c(c2)CCCC(=O)N3)cc1 [Compound 32b] | 0.8 |
| CCn1cnc2c1c(=O)[nH]c(=O)n2Cc1ccc(CNS(=O)(=O)c2ccc(Oc3ccccc3)cc2)cc1 [Compound 30c] | 5 |
| CCCCc1c(C)nc2nc(SCc3nc4c(c(=O)[nH]c(=O)n4Cc4ccc(CNS(=O)(=O)c5ccc6c(c5)CCCC(=O)N6)cc4)n3CC)nn2c1C [Compound 32c] | 1 |
| CCn1cnc2c1c(=O)[nH]c(=O)n2Cc1ccc(CNS(=O)(=O)c2ccc(OC3CCOCC3)c(F)c2)cc1 [Compound 43c] | 16 |
| CCn1cnc2c1c(=O)[nH]c(=O)n2Cc1ccc(CNS(=O)(=O)c2cccc(-c3ccccc3)c2)cc1 [Compound 29c] | 12 |
| CCn1cnc2c1c(=O)[nH]c(=O)n2Cc1ccc(CNS(=O)(=O)c2ccc3c(c2)CCCC(=O)N3)cc1 [Compound 27c] | 8 |
